molecular target: 72 kDa type IV collagenase (Homo sapiens)
Sequence (P08253 whole entry): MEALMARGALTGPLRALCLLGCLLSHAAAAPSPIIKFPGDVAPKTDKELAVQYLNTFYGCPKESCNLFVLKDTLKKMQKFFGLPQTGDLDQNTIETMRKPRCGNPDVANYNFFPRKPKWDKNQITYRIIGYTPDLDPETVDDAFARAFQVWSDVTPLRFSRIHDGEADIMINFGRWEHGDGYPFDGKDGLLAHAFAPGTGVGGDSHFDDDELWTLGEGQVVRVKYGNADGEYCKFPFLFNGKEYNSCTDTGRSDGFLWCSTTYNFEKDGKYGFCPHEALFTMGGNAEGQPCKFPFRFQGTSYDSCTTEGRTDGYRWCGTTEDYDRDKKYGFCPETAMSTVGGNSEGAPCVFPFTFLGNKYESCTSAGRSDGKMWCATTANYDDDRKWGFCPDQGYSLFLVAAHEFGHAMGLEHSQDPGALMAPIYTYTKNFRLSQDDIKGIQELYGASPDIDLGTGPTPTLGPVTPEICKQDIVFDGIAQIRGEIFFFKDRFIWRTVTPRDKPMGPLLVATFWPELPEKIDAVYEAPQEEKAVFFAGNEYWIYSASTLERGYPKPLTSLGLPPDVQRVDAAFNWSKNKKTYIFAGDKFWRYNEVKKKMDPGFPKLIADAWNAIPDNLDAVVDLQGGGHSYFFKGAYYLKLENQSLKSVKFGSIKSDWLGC
PROPERTY NAME: pIC50
Please report pIC50 as the negative decimal logarithm of the molar concentration, giving only the number.

As a guide, the following entries are already answered.
STRUCTURE NOTATION | pIC50
CNC(=O)[C@H](Cc1c[nH]c2ccccc12)NC(=O)/C(=C/C=C/c1ccccc1)CC(=O)NO | 6.92
CNC(=O)[C@H](Cc1c[nH]c2ccccc12)NC(=O)/C(=C/CCc1ccccc1)CC(=O)NO | 6.55
C/C=C/C=C(\CC(=O)NO)C(=O)N[C@@H](Cc1c[nH]c2ccccc12)C(=O)NC | 4.11

Field: next compound
The measured pIC50 associated with CCCCCC/C=C(\CC(=O)NO)C(=O)N[C@@H](Cc1c[nH]c2ccccc12)C(=O)NC reads 6.91

----------
target: UniProt:P45452
PROPERTY NAME: IC50 (nM)
Respond numerically; units are nM and should not be typed.

GET /values?item= CCCCCC/C=C(\CC(=O)NO)C(=O)N[C@@H](Cc1c[nH]c2ccccc12)C(=O)NC &system= UniProt:P45452 returns IC50: 122

----------
Reported values: IC50 for Matrix metalloproteinase-14 (Homo sapiens, UniProt P50281), one per item.
Respond numerically; units are nM and should not be typed.

STRUCTURE NOTATION | IC50 [nM]
CNC(=O)[C@H](Cc1c[nH]c2ccccc12)NC(=O)/C(=C/C(C)C)CC(=O)NO | 10
C/C=C/C=C(\CC(=O)NO)C(=O)N[C@@H](Cc1c[nH]c2ccccc12)C(=O)NC | 913
CNC(=O)[C@H](Cc1c[nH]c2ccccc12)NC(=O)[C@@H](CC(=O)NO)CC(C)C | 13.4

Field: next compound
The measured IC50 associated with CNC(=O)[C@H](Cc1c[nH]c2ccccc12)NC(=O)/C(=C/C=C/c1ccccc1)CC(=O)NO reads 2490

----------
biological target: Neutrophil collagenase (Homo sapiens); assay: Inhibition of MMP8
Sequence (P22894 whole entry): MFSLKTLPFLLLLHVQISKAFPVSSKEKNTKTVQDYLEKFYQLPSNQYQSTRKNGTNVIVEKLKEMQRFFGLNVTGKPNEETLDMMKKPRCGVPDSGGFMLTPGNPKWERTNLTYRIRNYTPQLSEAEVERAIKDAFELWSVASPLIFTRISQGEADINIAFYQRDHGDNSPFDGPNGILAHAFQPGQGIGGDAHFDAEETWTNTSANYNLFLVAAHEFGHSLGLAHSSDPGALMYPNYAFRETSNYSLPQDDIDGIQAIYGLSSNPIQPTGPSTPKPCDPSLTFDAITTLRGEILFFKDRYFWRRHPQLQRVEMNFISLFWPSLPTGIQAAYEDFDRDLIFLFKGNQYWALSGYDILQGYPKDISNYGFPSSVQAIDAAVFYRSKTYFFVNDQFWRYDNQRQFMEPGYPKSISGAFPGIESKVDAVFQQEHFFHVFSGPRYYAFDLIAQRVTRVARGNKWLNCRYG
PROPERTY NAME: IC50

The measured IC50 associated with CCCCCC/C=C(\CC(=O)NO)C(=O)N[C@@H](Cc1c[nH]c2ccccc12)C(=O)NC reads 101 nM

----------
target: Matrix metalloproteinase-9 (Homo sapiens)
Sequence (P14780 whole entry): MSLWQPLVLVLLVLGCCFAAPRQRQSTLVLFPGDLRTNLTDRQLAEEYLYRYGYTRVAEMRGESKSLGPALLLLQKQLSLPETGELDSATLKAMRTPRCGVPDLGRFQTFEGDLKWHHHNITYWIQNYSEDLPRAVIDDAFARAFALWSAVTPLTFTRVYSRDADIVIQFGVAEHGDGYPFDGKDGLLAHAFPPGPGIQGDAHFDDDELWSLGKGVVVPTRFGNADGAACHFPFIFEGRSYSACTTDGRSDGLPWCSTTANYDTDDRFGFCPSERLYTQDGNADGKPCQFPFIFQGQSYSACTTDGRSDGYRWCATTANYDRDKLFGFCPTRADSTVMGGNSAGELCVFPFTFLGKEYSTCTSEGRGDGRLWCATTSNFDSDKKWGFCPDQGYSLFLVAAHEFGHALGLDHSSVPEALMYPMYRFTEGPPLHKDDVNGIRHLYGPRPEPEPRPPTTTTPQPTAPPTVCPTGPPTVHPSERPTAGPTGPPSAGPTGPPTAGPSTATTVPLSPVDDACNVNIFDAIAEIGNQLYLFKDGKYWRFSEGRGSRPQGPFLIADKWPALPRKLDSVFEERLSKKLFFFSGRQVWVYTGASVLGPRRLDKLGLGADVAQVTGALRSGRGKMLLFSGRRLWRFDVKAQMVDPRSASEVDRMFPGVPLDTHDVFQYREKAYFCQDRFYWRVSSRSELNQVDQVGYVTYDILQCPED
PROPERTY NAME: IC50 (nM)
Respond numerically; units are nM and should not be typed.

GET /values?item= CNC(=O)[C@H](Cc1c[nH]c2ccccc12)NC(=O)/C(=C/CCc1ccccc1)CC(=O)NO &system= Matrix metalloproteinase-9 (Homo sapiens) returns IC50: 45

----------
target: Stromelysin-1 (Homo sapiens, UniProt P08254)
Sequence (P08254 whole entry): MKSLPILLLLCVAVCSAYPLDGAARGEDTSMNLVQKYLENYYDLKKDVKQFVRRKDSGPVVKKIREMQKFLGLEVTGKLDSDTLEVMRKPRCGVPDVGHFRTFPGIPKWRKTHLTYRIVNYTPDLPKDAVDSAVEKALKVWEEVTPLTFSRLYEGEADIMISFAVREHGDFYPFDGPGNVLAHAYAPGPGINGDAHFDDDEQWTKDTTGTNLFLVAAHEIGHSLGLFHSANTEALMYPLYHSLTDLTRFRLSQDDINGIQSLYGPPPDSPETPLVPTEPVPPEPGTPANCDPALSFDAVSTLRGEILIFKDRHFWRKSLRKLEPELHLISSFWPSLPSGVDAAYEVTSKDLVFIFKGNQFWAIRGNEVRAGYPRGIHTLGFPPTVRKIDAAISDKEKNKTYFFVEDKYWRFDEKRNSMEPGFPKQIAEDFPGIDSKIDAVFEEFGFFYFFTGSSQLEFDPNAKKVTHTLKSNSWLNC
PROPERTY NAME: pIC50
Please report pIC50 as the negative decimal logarithm of the molar concentration, giving only the number.

The measured pIC50 associated with CNC(=O)[C@H](Cc1c[nH]c2ccccc12)NC(=O)/C(=C/CCc1ccccc1)CC(=O)NO reads 5.72

----------
Target chain: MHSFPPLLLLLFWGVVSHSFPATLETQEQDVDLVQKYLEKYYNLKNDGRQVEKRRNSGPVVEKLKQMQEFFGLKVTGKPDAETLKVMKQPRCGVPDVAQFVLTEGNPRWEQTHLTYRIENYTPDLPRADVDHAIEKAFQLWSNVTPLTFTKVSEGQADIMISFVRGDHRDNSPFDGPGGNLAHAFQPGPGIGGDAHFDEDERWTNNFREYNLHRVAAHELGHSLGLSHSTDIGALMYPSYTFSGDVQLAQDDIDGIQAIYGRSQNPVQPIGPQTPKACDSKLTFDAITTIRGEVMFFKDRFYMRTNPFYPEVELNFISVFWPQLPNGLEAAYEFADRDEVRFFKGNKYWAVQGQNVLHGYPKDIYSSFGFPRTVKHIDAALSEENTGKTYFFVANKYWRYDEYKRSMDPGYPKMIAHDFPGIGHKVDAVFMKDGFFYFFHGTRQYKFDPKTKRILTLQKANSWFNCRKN
IC50 for assorted compounds
I'd appreciate it if you wrote the number followed by its unit.

As a guide, the following entries are already answered.
STRUCTURE NOTATION | IC50
CNC(=O)[C@H](Cc1c[nH]c2ccccc12)NC(=O)/C(=C/CCc1ccccc1)CC(=O)NO | 9130 nM
C/C=C/C=C(\CC(=O)NO)C(=O)N[C@@H](Cc1c[nH]c2ccccc12)C(=O)NC | 984 nM
CCCCCC/C=C(\CC(=O)NO)C(=O)N[C@@H](Cc1c[nH]c2ccccc12)C(=O)NC | 32000 nM

The measured IC50 associated with CNC(=O)[C@H](Cc1c[nH]c2ccccc12)NC(=O)/C(=C/C=C/c1ccccc1)CC(=O)NO reads 1240 nM

The measured IC50 associated with CNC(=O)[C@H](Cc1c[nH]c2ccccc12)NC(=O)/C(=C/C(C)C)CC(=O)NO reads 18 nM
